In this section we review reported NF-kB luciferase reporter activity values for a set of sequences.
- Tested on: HEK293 NF-kB-luciferase reporter cells
- test.method.notes: NF-kB luciferase reporter activity, robust Z-score vs plate median (robust Z-score (log luminescence)); higher = stronger NF-kB reporter activation
- condition: TNF 40 ng/mL; TNF treatment time 8.5 h; transfection time 72 h
Please state the value as a number alone, without comment.

sequence	NF-kB luciferase reporter activity
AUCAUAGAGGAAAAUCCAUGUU	-1.03
UCUGCAAAGGGAAGCCCUUU	0.788
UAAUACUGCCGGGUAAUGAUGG	1.06

Noted for `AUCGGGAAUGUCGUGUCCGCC` : its NF-kB luciferase reporter activity reads 0.676

Noted for `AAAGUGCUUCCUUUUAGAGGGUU` : its NF-kB luciferase reporter activity reads -0.653

Noted for `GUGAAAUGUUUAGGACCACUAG` : its NF-kB luciferase reporter activity reads 0.988

Noted for `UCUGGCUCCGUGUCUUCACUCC` : its NF-kB luciferase reporter activity reads -1.34

Noted for `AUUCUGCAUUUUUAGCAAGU` : its NF-kB luciferase reporter activity reads -0.325

Noted for `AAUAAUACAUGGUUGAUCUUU` : its NF-kB luciferase reporter activity reads 0.0536

Noted for `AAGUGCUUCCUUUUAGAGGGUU` : its NF-kB luciferase reporter activity reads -1.29

Noted for `CUCUAGAGGGAAGCGCUUUCUGUU` : its NF-kB luciferase reporter activity reads 0.579

Noted for `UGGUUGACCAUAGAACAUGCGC` : its NF-kB luciferase reporter activity reads -2.27

====

- System: HEK293 NF-kB-luciferase reporter cells
- test.method.notes: NF-kB luciferase reporter activity, robust Z-score vs plate median (robust Z-score (log luminescence)); higher = stronger NF-kB reporter activation
- condition: TNF 0 ng/mL; TNF treatment time 8.5 h; transfection time 72 h
In this section we review reported NF-kB luciferase reporter activity values for a set of sequences.
Please state the value as a number alone, without comment.

Consider the reported NF-kB luciferase reporter activity for these sequences:
sequence	NF-kB luciferase reporter activity
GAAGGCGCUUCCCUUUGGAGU	-0.702
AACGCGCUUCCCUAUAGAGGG	-0.412
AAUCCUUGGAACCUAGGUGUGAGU	0.598
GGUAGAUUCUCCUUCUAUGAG	-0.702
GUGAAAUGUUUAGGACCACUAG	0.966

Noted for `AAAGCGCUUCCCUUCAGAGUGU` : its NF-kB luciferase reporter activity reads 0.00327

Noted for `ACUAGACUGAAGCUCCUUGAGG` : its NF-kB luciferase reporter activity reads -0.0115

Noted for `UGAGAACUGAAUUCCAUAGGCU` : its NF-kB luciferase reporter activity reads -1.29

Noted for `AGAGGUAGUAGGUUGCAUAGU` : its NF-kB luciferase reporter activity reads -0.2

Noted for `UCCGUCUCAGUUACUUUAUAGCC` : its NF-kB luciferase reporter activity reads 0.757

Noted for `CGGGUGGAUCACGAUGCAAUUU` : its NF-kB luciferase reporter activity reads 0.731

====

In this section we review reported NF-kB luciferase reporter activity values for a set of sequences.
- Tested on: HEK293 NF-kB-luciferase reporter cells
- test.method.notes: NF-kB luciferase reporter activity, robust Z-score vs plate median (robust Z-score (log luminescence)); higher = stronger NF-kB reporter activation
- condition: TNF 0 ng/mL; TNF treatment time 8.5 h; transfection time 72 h

Consider the reported NF-kB luciferase reporter activity for these sequences:
sequence	study.system	measured.attribute	result
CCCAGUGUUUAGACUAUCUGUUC	HEK293 NF-kB-luciferase reporter cells	NF-kB luciferase reporter activity	-0.547
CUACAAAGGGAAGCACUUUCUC	HEK293 NF-kB-luciferase reporter cells	NF-kB luciferase reporter activity	-1.11
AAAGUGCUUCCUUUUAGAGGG	HEK293 NF-kB-luciferase reporter cells	NF-kB luciferase reporter activity	-1.32
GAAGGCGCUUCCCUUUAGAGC	HEK293 NF-kB-luciferase reporter cells	NF-kB luciferase reporter activity	-0.845
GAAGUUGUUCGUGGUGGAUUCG	HEK293 NF-kB-luciferase reporter cells	NF-kB luciferase reporter activity	-0.0557
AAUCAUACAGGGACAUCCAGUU	HEK293 NF-kB-luciferase reporter cells	NF-kB luciferase reporter activity	-0.326

Noted for `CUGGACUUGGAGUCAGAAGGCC` : its NF-kB luciferase reporter activity reads -1.02

Noted for `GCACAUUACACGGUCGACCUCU` : its NF-kB luciferase reporter activity reads -0.263

Noted for `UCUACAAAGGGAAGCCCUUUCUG` : its NF-kB luciferase reporter activity reads -0.631

Noted for `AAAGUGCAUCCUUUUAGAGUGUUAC` : its NF-kB luciferase reporter activity reads -1.8

Noted for `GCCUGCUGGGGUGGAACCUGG` : its NF-kB luciferase reporter activity reads -0.469

Noted for `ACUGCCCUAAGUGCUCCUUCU` : its NF-kB luciferase reporter activity reads 2.18

Noted for `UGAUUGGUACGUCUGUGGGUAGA` : its NF-kB luciferase reporter activity reads -0.152

Noted for `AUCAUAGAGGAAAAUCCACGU` : its NF-kB luciferase reporter activity reads -0.604

Noted for `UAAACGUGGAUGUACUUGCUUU` : its NF-kB luciferase reporter activity reads -0.000139

Noted for `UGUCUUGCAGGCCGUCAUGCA` : its NF-kB luciferase reporter activity reads 1.79

Noted for `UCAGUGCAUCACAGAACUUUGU` : its NF-kB luciferase reporter activity reads 0.225

Noted for `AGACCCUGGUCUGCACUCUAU` : its NF-kB luciferase reporter activity reads 0.885

Values were extracted from the supplement of paper PMC3621838.
